Known one-nucleolus phenotype percent effect of a selection of sequences
system: MCF10A; experiment: one-nucleolus phenotype percent effect (relative to siNT 0% and siNOL11 100%); higher = more cells with one nucleolus (ribosome biogenesis inhibition); conditions: 20 nM; 72 h
Your answer is read as %, so omit the unit and give the number.

AAAAGUAAUUGCGGUUUUUGCC [hsa-miR-548c-5p] :: -19.1
CUUAUAUCAGAGGCUGUGGG [hsa-miR-6083] :: 28.6
AGGAGGCAGCGCUCUCAGGAC [hsa-miR-650] :: 23.2

Exam item: Provide measured one-nucleolus phenotype percent effect value, entry: AUAAGACGAGCAAAAAGCUUGU [hsa-miR-208a]
Marked response: -6.61

Exam item: Provide measured one-nucleolus phenotype percent effect value, entry: UGCCCUGCAUGGUGUCCCCACAG [hsa-miR-6799-3p]
Marked response: 6.43

Exam item: Provide measured one-nucleolus phenotype percent effect value, entry: AGCGGUGCUCCUGCGGGCCGA [hsa-miR-4746-3p]
Marked response: 35.6

Exam item: Provide measured one-nucleolus phenotype percent effect value, entry: GAGAAAUGCUGGACUAAUCUGC [hsa-miR-5680]
Marked response: -20.6

Exam item: Provide measured one-nucleolus phenotype percent effect value, entry: GUGAGACUUCUCUCCCUUCAG [hsa-miR-6864-3p]
Marked response: 14.5

Exam item: Provide measured one-nucleolus phenotype percent effect value, entry: UGGUCGACCAGUUGGAAAGUAAU [hsa-miR-412-5p]
Marked response: 13.6

Exam item: Provide measured one-nucleolus phenotype percent effect value, entry: UCUGGGUGCAGUGGGGGUU [hsa-miR-6776-5p]
Marked response: 24.4

Exam item: Provide measured one-nucleolus phenotype percent effect value, entry: UUUUGCACCUUUUGGAGUGAA [hsa-miR-507]
Marked response: 25.1

Exam item: Provide measured one-nucleolus phenotype percent effect value, entry: CGGGGAGAGAACGCAGUGACGU [hsa-miR-3175]
Marked response: 5.01

Source listed as the supplement of paper PMC10899765.
